B1: TPR t1 (parent)
chain: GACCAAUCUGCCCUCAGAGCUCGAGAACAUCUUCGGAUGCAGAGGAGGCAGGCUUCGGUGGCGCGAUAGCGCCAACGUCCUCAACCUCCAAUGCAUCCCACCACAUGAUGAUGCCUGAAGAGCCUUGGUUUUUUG

Variants of: B1
Assay: polymerase ribozyme fitness, log enrichment relative to wild type (log ratio); higher = more active; in vitro selection for triplet polymerase activity
Attribute measured: polymerase ribozyme fitness (log ratio)

> print(dat)
                 variant.annotation  assay.value
 1                      G120A C123A       -0.268
 2             G36A G45C A83G C101G        -2.84
 3                  G17A G61A C124U        -2.13
 4  C40U A68U A74U C97U C102A A111G        -7.15
 5                 G63C C102A U112A        -1.64
 6                   C15U C40A G60C         -2.3
 7                        G52A U78G       -0.374
 8                  C12U U33G U131A        -4.55
 9                        G61U G93A       0.0678
10              A29G U32C G42U G47C        -4.18
11                        A27U A29C        -4.78
